Experiment: Volatility of perfuming compounds (Tables 4 to 10), with top/middle/bottom note type
Format: physicochemical
Conditions: Table 8, perfuming compounds having a sweet note; note type by volatility
value-kind: Type

| compound | value-kind | result |
| --- | --- | --- |
| SCc1ccco1 [2-FURANMETHANETHIOL] | Type | Top |
| CC1=C(O)C(=O)CC1 [2-HYDROXY-3-METHYL-2-CYCLOPENTEN-1-ONE] | Type | Top |
| C/C=C/c1ccc(OC)cc1 [1-methoxy-4-[(1E)-1-propen-1-yl]benzene] | Type | Top |
| CC/C=C\CC1=C(C)CCC1=O | Type | Middle |
| CCCCC[C@@H]1OC(=O)C[C@H]1C (racemic) [(+−)-TRANS-3-METHYL-4-NONANOLIDE] | Type | Bottom |

Fill in Type for each of the 4 compounds listed.
1. CCCCC1CCCC(=O)O1 (stereo not shown) [5-NONANOLIDE]
2. CCC(CC(C)CC)=NO (stereo not shown) [5-METHYL-3-HEPTANONE OXIME]
3. CC1=CC[C@H](C(C)CC2CCCC2=O)CC1 (stereo partly shown)
4. CCOC(=O)CC1(C)OCCO1 [ETHYL 2-METHYL-1,3-DIOXOLANE-2-ACETATE]

A)
["Bottom", "Top", "Bottom", "Top"]

Hey, quick one: what's Type for each of these?
1. CCCCOC(C)=O [BUTYL ACETATE]
2. C/C=C/C(=O)C1C(C)=CCCC1(C)C (racemic)
3. COC(=O)Cc1ccccc1 [METHYL PHENYLACETATE]

A)
1: Top; 2: Top; 3: Top

Hi there! I need Type for each item below, if you can.
1. CC(C)CC(=O)OCc1ccccc1 [BENZYL 3-METHYLBUTANOATE]
2. Cc1ncsc1CCO [2-(4-METHYL-1,3-THIAZOL-5-YL)-1-ETHANOL]
3. CCCCCC1CCCC(=O)O1 (racemic) [(+−)-6-pentyltetrahydro-2H-pyran-2-one]
4. C=C1CCCC(C)(C)C1C(=O)/C=C/C (racemic)

A)
["Middle", "Bottom", "Bottom", "Top"]
